Molecular target: recombinant MCL1 (Homo sapiens)
Construct: made in house; host or cells: E. coli BL21 (DE3)
Sequence (Q07820 whole entry): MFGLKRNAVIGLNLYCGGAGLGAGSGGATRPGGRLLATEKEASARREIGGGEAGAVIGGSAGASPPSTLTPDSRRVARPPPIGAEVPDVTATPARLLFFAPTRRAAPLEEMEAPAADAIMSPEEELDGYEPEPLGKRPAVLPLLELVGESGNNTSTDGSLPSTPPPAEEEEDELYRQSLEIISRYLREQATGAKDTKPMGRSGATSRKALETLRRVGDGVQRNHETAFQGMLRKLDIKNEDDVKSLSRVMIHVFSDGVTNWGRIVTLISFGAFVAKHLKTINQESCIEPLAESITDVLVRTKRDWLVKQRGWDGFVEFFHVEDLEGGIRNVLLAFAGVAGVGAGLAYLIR
Test: Competitive fluorescence polarization assay (FPA), MCL1 with F-BAK probe
Assay type: binding
Settings: competitive FPA; 50 nM recombinant MCL1, 10 nM F-BAK, unlabeled peptide titration; 1x PBS pH 7.4; 20 min pre-incubation + 40 min; mean ± SD, biological and technical triplicate; SD; read-out: FPA IC50
No end group written: not given here.

| SUBSTANCE | UNIT_OF_MEASURE | IC50 |
| --- | --- | --- |
| GRENFEILMKLKESLELMELVPQ-NH2 [p73_23mer] | nM | 982 |

* * *

Biological target: recombinant MCL1 (Homo sapiens)
Construct: made in house; host or cells: E. coli BL21 (DE3)
Test: Competitive fluorescence polarization assay (FPA), MCL1 with F-BAK probe
Assay type: binding
Settings: competitive FPA; 50 nM recombinant MCL1, 10 nM F-BAK, unlabeled peptide titration; 1x PBS pH 7.4; 20 min pre-incubation + 40 min; mean ± SD, biological and technical triplicate; read-out: FPA IC50
pIC50: −log10 of the molar value. No end group written: not given here.
Overview of reported pIC50 across a group of substances:

| SUBSTANCE | pIC50 |
| --- | --- |
| DEDTYYLQVR-NH2 [β1] | < 5.00 |
| VPQPLVDSYRQQQQLLQR-NH2 [α2] | < 5.00 |
